Ref: PubChem BioAssay AID1963976

Test system: 435261-313-R-J1-PDC tumor spheroid viability;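 note: spheroids exposed to compounds for 7 days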
Experiment: Anticancer human tumor 435261-313-R-J1-PDC patient-derived colon adenocarcinoma cell line growth inhibition [PI3K]
Details: second compound 0.0316 µM; first compound 0.0316 µM; hits give low values; spheroids with HUVEC and MSC
Text: Combinatorial screen of targeted agents with the PI3K inhibitors inavolisib, alpelisib, duvelisib, and copanlisib in multi-cell type tumor spheroids A high-throughput screen of multi-cell type tumor spheroids was designed to identify active combinations of targeted small molecules and PI3K pathway inhibitors. […] Compounds. […] If the clinical Cmax for an agent had not been determined, the highest concentration tested was 10 microM. […]
Provide the recorded viability, T/C for the entries that follow.
Return type: number; implicit unit %.

Record summary for C#Cc1c(F)ccc2cc(O)cc(-c3ncc4c(N5CC6CCC(C5)N6)nc(OCC56CCCN5CC(F)C6)nc4c3F)c12 (stereo not drawn) + CC(Nc1ncnc2nc[nH]c12)c1cc2cccc(Cl)c2c(=O)n1-c1ccccc1 : reported viability, T/C = 78.7

Looking up C#Cc1c(F)ccc2cc(O)cc(-c3ncc4c(N5CC6CCC(C5)N6)nc(OCC56CCCN5CC(F)C6)nc4c3F)c12 (stereo not drawn) + CC(Nc1ccc2c(c1)OCCn1cc(N3C(=O)OCC3C(F)F)nc1-2)C(N)=O , I found its viability, T/C recorded as 54.5

Measured viability, T/C of C=CC(=O)N1CCN(c2nc(=O)n(-c3c(C)ccnc3C(C)C)c3nc(-c4c(O)cccc4F)c(F)cc23)C(C)C1 (stereo not drawn) + Cc1nc(NC(=O)N2CCCC2C(N)=O)sc1-c1ccnc(C(C)(C)C(F)(F)F)c1 : 70.5
